Reported growth values follow for various compounds
- System: HT29 colon
- ASSAY_COMMENT: NCI-60 one-dose screen, 48 h (100 = growth as untreated, 0 = no growth, -100 = all killed)
- MEASUREMENT_PARAMETERS: 10 µM unless noted
Compounds without any hit were thinned out: in the full panel of roughly 83,000, 20% have a hit.
Write the number in % without appending the unit.

Take a look at these entries with their results.
> print(dat)
                                   compound  reading
1  Cc1c(C(N)=O)sc2c1c(=O)n(Cc1ccccc1)c1nnc(S(C)(=O)=O)n21     88.2
2  COc1ccc(CN2C(=O)/C(=C\C(=O)c3ccc(OCCN4CCCCC4)cc3)c3ccccc32)cc1     8.95
3      CC(=N\N=C(N)N)/C(=N/N=C(N)N)c1ccccc1     42.7
4  CCC1(CC)C(OC)NC(Br)=C(C#N)C1(C#N)C(N)=O (stereo not given)      105

Let us move to another entry and its growth.
Documented growth of `Cc1ncc(C(=O)Nc2ccc(CN3CCN(C)CC3)c(C(F)(F)F)c2)cc1C#Cc1cnc(NC2CC2)c2ncccc12` : -80.7
